Parameter pIC50: see the listing below.
tested system: Human MMP9 (Homo sapiens)
Construct: purchased Calbiochem 444231
assay name: MMP9 inhibition experiment
Type: biochemical
details: read-out: IC50 value MMP-9
pIC50: −log10 of the molar value.

- compound: "Cc1cncc(C(CS(=O)(=O)c2ccc(OCc3cc(C)nc4ccc(F)cc34)cc2)N(O)C=O)c1 (centres unmarked)"
  pIC50: "< 4.00"
- compound: "Cc1cncc(C(CS(=O)(=O)c2ccc(OCc3cc(C)nc4ccccc34)cc2)N(O)C=O)c1 (centres unmarked)"
  pIC50: "< 4.00"
- compound: "Cc1cc(COc2ccc(S(=O)(=O)CC(CC3CCN(S(C)(=O)=O)CC3)N(O)C=O)cc2)c2ccccc2n1 (centres unmarked)"
  pIC50: "< 4.00"
- compound: "Cc1ccc2nc(C)cc(COc3ccc(S(=O)(=O)CC(CC4CCC(=NO)CC4)N(O)C=O)cc3)c2c1 (centres unmarked)"
  pIC50: 4.40
- compound: "COCc1cc(COc2ccc(S(=O)(=O)CC(C=C3CCC4(CC3)OCCO4)N(O)C=O)cc2)cc(C)n1 (centres unmarked)"
  pIC50: "< 4.00"

* * *

tested system: Human MMP9 (Homo sapiens)
Construct: purchased Calbiochem 444231
assay name: MMP9 inhibition experiment
Format: biochemical
details: read-out: IC50 value MMP-9
pIC50: −log10 of the molar value.
Measured pIC50, listed per entry.

- molecule: "CCC(CC)C(=O)N1CCCC(C(CS(=O)(=O)c2ccc(OCc3cc(C)nc4ccccc34)cc2)N(O)C=O)C1 (stereo not drawn)"
  pIC50: 4.34
- molecule: "CCC(CC)CN1CCC(CC(CS(=O)(=O)c2ccc(OCc3cc(C)nc4ccccc34)cc2)N(O)C=O)CC1 (stereo not drawn)"
  pIC50: 4.42
- molecule: "Cc1cc(COc2ccc(S(=O)(=O)CC(C3CSC(=O)N3C)N(O)C=O)cc2)c2ccccc2n1 (stereo not drawn)"
  pIC50: "< 4.00"
- molecule: "Cc1cc(COc2ccc(S(=O)(=O)CC(N(O)C=O)C3(C)CCC4(CC3)OCCO4)cc2)c2ccccc2n1 (stereo not drawn)"
  pIC50: "< 4.00"
- molecule: "Cc1cc(COc2ccc(S(=O)(=O)CC(C3CCOCC3)N(O)C=O)cc2)c2ccccc2n1 (stereo not drawn)"
  pIC50: "< 4.00"
- molecule: "CC(=O)N1CCC(=CC(CS(=O)(=O)c2ccc(OCc3cc(C)nc4ccccc34)cc2)N(O)C=O)CC1 (stereo not drawn)"
  pIC50: "< 4.00"

* * *

tested system: Human MMP1 (Homo sapiens, UniProt P03956)
Construct: purchased Calbiochem 444208
Sequence (P03956 100-469): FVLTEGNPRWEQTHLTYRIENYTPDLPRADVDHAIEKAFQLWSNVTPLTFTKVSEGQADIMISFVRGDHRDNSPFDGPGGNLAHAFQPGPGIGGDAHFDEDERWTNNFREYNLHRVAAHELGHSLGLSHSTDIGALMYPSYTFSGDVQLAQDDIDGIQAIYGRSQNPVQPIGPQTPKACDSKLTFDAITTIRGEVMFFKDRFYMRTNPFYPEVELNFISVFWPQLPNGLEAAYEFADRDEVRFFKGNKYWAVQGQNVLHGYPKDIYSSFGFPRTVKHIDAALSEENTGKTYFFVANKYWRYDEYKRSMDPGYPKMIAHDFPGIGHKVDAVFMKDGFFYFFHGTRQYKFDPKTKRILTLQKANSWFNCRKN
assay name: MMP1 inhibition experiment
Assay type: biochemical
details: read-out: IC50 value MMP-1

- molecule: "COc1cc(C)cc(COc2ccc(S(=O)(=O)CC(CC3CCC4(CC3)OCCO4)N(O)C=O)cc2)c1 (stereo not drawn)"
  IC50, µM: 60
- molecule: "Cc1cc(Cl)cc(COc2ccc(S(=O)(=O)CC(C=C3CCC4(CC3)OCCO4)N(O)C=O)cc2)c1 (stereo not drawn)"
  IC50, µM: 60
- molecule: "Cc1cc(COc2ccc(S(=O)(=O)CC(C3CCC(=NOC=O)CC3)N(O)C=O)cc2)c2ccccc2n1 (stereo not drawn)"
  IC50, µM: 60

* * *

tested system: Human MMP9 (Homo sapiens)
Construct: purchased Calbiochem 444231
assay name: MMP9 inhibition experiment
Type: biochemical
details: read-out: IC50 value MMP-9
pIC50: −log10 of the molar value.
Each entry below lists one item and its recorded pIC50 value.
property name: pIC50

- compound: "Cc1cc(COc2ccc(S(=O)(=O)CC(C=C3CCN(C=O)CC3)N(O)C=O)cc2)c2ccccc2n1 (centres unmarked)"
  data value: "< 4.00"
- compound: "CC(=O)N1CCC(CC(CS(=O)(=O)c2ccc(OCc3cc(C)nc4ccccc34)cc2)N(O)C=O)CC1 (centres unmarked)"
  data value: "< 4.00"
- compound: "Cc1cncc(C(CS(=O)(=O)c2ccc(OCc3cc(C)nc4c(F)cccc34)cc2)N(O)C=O)c1 (centres unmarked)"
  data value: "< 4.00"
- compound: "O=CON=C1CCC(=CC(CS(=O)(=O)c2ccc(OCc3ccc4ccccc4n3)cc2)N(O)C=O)CC1 (centres unmarked)"
  data value: 4.25
- compound: "Cc1cc(COc2ccc(S(=O)(=O)CC(C(F)=C3CCOCC3)N(O)C=O)cc2)c2ccccc2n1 (centres unmarked)"
  data value: "< 4.00"

* * *

tested system: Human MMP9 (Homo sapiens, UniProt P14780)
Construct: purchased Calbiochem 444231
Sequence (P14780 107-707 limits assumed): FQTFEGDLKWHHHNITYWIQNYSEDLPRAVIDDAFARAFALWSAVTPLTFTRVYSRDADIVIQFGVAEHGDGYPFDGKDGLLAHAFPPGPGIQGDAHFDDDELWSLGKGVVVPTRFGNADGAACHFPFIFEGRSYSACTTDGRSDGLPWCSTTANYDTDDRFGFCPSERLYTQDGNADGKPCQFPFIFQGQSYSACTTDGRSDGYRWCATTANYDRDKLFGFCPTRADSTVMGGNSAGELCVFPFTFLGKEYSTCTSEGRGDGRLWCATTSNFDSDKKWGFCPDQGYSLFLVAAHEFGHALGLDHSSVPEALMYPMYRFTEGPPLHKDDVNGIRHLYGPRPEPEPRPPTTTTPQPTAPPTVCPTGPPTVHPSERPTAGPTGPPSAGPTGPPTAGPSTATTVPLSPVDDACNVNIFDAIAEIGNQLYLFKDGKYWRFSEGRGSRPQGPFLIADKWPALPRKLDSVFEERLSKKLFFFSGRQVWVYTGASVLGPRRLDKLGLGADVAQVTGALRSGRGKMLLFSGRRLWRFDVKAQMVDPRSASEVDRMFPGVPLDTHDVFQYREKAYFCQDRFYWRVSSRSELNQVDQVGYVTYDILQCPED
assay name: MMP9 inhibition experiment
Assay type: biochemical
details: read-out: IC50 value MMP-9

- molecule: "COCc1cc(COc2ccc(S(=O)(=O)CC(C=C3CCC(=O)CC3)N(O)C=O)cc2)cc(C)n1 (stereo not drawn) [Example I-119]"
  IC50: "> 100 µM"
- molecule: "Cc1cc(COc2ccc(S(=O)(=O)CC(N(O)C=O)C3(C)CCC(=O)CC3)cc2)c2ccccc2n1 (stereo not drawn) [Example I-48]"
  IC50: "> 100 µM"
- molecule: "Cc1cc(COc2ccc(S(=O)(=O)CC(C=C3CCC(=O)CC3)N(O)C=O)cc2)cc(C)n1 (stereo not drawn) [Example I-114]"
  IC50: "> 100 µM"
- molecule: "CCC(CC)CN1CCC(=CC(CS(=O)(=O)c2ccc(OCc3cc(C)nc4ccccc34)cc2)N(O)C=O)CC1 (stereo not drawn) [Example I-44]"
  IC50: "> 100 µM"
- molecule: "COc1cc(C)cc(COc2ccc(S(=O)(=O)CC(C=C3CCC(=O)CC3)N(O)C=O)cc2)c1 (stereo not drawn) [Example I-94]"
  IC50: "40 µM"
- molecule: "CCC(CC)C(=O)N1CCC(CC(CS(=O)(=O)c2ccc(OCc3cc(C)nc4ccccc34)cc2)N(O)C=O)C(C)C1 (stereo not drawn) [Example I-64]"
  IC50: "58 µM"
- molecule: "CCC(CC)C(=O)N1CCC(=CC(CS(=O)(=O)c2ccc(OCc3cc(C)nc4ccccc34)cc2)N(O)C=O)CC1 (stereo not drawn) [Example I-42]"
  IC50: "52 µM"
- molecule: "Cc1cc(COc2ccc(S(=O)(=O)CC(C=C3CCSCC3)N(O)C(N)=O)cc2)c2ccccc2n1 (stereo not drawn) [Example I-125]"
  IC50: "> 100 µM"
- molecule: "Cc1cc(COc2ccc(S(=O)(=O)CC(CCC3=CCCC(OC=O)C3)N(O)C=O)cc2)c2ccccc2n1 (stereo not drawn) [Example I-38]"
  IC50: "54 µM"

* * *

tested system: Human MMP13 (Homo sapiens)
Construct: purchased Chemicon CC068
assay name: MMP13 inhibition experiment
Format: biochemical
details: concentration required for 50% inhibition of enzyme activity; read-out: IC50 value MMP-13
Entries annotated with measured IC50

- molecule: "Cc1cc(COc2ccc(S(=O)(=O)CC(CCC3=CCCC(OC=O)C3)N(O)C=O)cc2)c2ccccc2n1 (centres unmarked) [Example I-38]"
  IC50: "22 µM"
- molecule: "Cc1cc(COc2ccc(S(=O)(=O)CC(C=C3CCSCC3)N(O)C(N)=O)cc2)c2ccccc2n1 (centres unmarked) [Example I-125]"
  IC50: "> 100 µM"
- molecule: "Cc1cc(COc2ccc(S(=O)(=O)N3CCSC(C)(C)[C@@H]3C(=O)NO)cc2)cc(C)n1 [compound 1, reference compound]"
  IC50: "0.2 µM"
- molecule: "COc1cc(C)cc(COc2ccc(S(=O)(=O)CC(CC3CCC4(CC3)OCCO4)N(O)C=O)cc2)c1 (centres unmarked) [Example I-93]"
  IC50: "12 µM"
- molecule: "Cc1cc(COc2ccc(S(=O)(=O)CC(c3cccnc3C)N(O)C=O)cc2)c2ccccc2n1 (centres unmarked) [Example I-67]"
  IC50: "30 µM"

* * *

Reported IC50 for target or system Human MMP3 (Homo sapiens), by entry.
property name: IC50 (µM)

- compound: "Cc1cc(COc2ccc(S(=O)(=O)CC(C=C3CCC(=NO)CC3)N(O)C=O)cc2)c2ccccc2n1 (stereo not drawn)"
  tested system: "Human MMP3 (Homo sapiens)"
  data value: 5
- compound: "O=CN(O)C(C=C1CCC(=O)CC1)CS(=O)(=O)c1ccc(OCc2ccc3ccccc3n2)cc1 (stereo not drawn)"
  tested system: "Human MMP3 (Homo sapiens)"
  data value: 78
- compound: "CCC(CC)C(=O)N1CCC(=CC(CS(=O)(=O)c2ccc(OCc3cc(C)nc4ccccc34)cc2)N(O)C=O)CC1 (stereo not drawn)"
  tested system: "Human MMP3 (Homo sapiens)"
  data value: 2.2
- compound: "Cc1cc(COc2ccc(S(=O)(=O)CC(C=C3CCN(C(=O)c4ccccc4)CC3)N(O)C=O)cc2)c2ccccc2n1 (stereo not drawn)"
  tested system: "Human MMP3 (Homo sapiens)"
  data value: 0.05
- compound: "CC(=O)N1CCC(=CC(CS(=O)(=O)c2ccc(OCc3cc(C)nc4ccccc34)cc2)N(O)C=O)CC1 (stereo not drawn)"
  tested system: "Human MMP3 (Homo sapiens)"
  data value: 4.8
- compound: "Cc1cc(COc2ccc(S(=O)(=O)CC(c3ccccc3C)N(O)C=O)cc2)c2ccccc2n1 (stereo not drawn)"
  tested system: "Human MMP3 (Homo sapiens)"
  data value: 3
- compound: "Cc1cc(COc2ccc(S(=O)(=O)CC(C=C3CCC(=O)CC3)N(O)C=O)cc2)c2ccccc2n1 (stereo not drawn)"
  tested system: "Human MMP3 (Homo sapiens)"
  data value: 6.3
- compound: "Cc1cc(COc2ccc(S(=O)(=O)CC(C=C3CCN(C=O)CC3)N(O)C=O)cc2)c2ccccc2n1 (stereo not drawn)"
  tested system: "Human MMP3 (Homo sapiens)"
  data value: 11
- compound: "Cc1ccc(C(CS(=O)(=O)c2ccc(OCc3cc(C)nc4ccccc34)cc2)N(O)C=O)cn1 (stereo not drawn)"
  tested system: "Human MMP3 (Homo sapiens)"
  data value: 2.7

Each recorded value in this set is attributed to patent US7511144B2.
